Target or system UniProt Q9NQS5; recorded quantity pIC50.
Sequence (Q9NQS5 whole entry): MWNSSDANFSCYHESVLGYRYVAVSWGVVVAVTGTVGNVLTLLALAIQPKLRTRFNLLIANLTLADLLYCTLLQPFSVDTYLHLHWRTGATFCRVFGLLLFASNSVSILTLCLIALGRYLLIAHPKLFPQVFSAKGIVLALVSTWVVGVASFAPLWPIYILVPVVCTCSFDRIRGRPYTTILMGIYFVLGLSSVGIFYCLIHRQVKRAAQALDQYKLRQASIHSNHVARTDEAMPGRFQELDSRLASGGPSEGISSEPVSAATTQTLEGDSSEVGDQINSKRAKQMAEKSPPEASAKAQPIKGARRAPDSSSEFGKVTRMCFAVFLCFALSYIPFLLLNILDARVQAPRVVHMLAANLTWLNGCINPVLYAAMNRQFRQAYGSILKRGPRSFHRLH
pIC50: −log10 of the molar value.

Result for COc1nccc(-c2ccc3c(c2)CCn2c-3cc(OCC3COCCO3)nc2=O)c1Cl (stereo not drawn) [Compound 64] , tested on UniProt Q9NQS5, pIC50: 6.30 to 7.00

Summary line: CC(C)(O)C#Cc1ccc2c(c1)CCn1c-2cc(OCC2COCCO2)nc1=O (stereo not drawn) [Compound 55] , UniProt Q9NQS5, reported pIC50 = < 6.00

UniProt Q9NQS5 pIC50 of C=CCOc1ccc2c(c1)CCn1c-2cc(OCC2COCCO2)nc1=O (stereo not drawn) [Compound 1] is 6.30 to 7.00

Value source: patent US10047083B2
